- system: MLE dsRBD1+2 N175A (Drosophila, UniProt P24785 1-264, N175A)
- Sequence (P24785 1-264 N175A): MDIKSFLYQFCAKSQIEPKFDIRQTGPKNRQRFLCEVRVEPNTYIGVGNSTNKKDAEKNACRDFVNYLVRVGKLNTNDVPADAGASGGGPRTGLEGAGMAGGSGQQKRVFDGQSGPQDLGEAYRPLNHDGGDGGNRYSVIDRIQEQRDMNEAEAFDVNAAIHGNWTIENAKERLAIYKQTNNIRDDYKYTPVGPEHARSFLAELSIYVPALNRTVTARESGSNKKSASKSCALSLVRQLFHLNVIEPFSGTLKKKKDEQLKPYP
- test_summary: fluorescence polarization; FP: 80 nM 3'-FAM RNA stock mixed 1:1 with protein, buffer D (composition not in material), 15 min, 20 C; EMSA: 1200 nM RNA stock mixed 1:1 with protein, buffer
- applied_conditions: protein: recombinant; tags: SUMO tag removed by ULP1; label: 3'-FAM; hairpin, 13 nt loop (C135-C147)
measured_metric: pKd
Please report pKd as the negative decimal logarithm of the molar concentration, giving only the number.

# input I am curious: what pKd value has been reported for R2H1 55mer (FAM) (structured_RNA) RNA: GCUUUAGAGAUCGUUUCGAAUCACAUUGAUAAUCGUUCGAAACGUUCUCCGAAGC ?
# output 5.88
